Target: T1, factor VIIIa A1/A3C1C2 dimer, Glu113Ala (human, UniProt P00451 20-391; P00451 1709-2351)
T1 chain 1: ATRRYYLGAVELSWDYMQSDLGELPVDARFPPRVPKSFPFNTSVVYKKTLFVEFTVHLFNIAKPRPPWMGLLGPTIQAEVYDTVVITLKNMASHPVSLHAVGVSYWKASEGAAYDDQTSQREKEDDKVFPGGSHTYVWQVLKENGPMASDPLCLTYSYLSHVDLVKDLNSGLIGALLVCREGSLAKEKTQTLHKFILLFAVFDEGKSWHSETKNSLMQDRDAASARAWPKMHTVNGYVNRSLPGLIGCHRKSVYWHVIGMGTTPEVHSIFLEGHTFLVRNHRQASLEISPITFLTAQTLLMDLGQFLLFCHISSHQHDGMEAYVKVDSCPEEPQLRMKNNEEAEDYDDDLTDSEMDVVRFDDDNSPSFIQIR
T1 chain 2: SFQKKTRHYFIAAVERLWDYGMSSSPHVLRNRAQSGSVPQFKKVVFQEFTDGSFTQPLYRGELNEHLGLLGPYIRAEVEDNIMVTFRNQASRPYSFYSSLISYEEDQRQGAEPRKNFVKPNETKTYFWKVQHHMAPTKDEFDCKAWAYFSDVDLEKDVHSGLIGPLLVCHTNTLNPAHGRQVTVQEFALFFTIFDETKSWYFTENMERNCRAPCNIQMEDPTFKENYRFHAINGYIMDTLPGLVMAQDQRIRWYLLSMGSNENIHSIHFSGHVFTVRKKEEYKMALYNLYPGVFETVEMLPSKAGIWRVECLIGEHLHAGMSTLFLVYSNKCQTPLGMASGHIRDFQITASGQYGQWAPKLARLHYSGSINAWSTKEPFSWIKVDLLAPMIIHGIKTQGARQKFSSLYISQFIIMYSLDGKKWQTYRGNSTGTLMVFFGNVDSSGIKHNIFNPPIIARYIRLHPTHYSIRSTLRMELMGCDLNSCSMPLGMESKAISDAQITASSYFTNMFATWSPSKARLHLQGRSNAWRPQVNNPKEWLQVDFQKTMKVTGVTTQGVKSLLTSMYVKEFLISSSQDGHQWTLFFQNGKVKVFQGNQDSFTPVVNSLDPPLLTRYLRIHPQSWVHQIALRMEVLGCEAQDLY
Assay: cell-based or functional assay
VALUE TYPE: Decay rate relative to wild type, Factor VIIIa (1.5 nM, factor IXa absent)

Take a look at these entries with their results.
- BINDER: "factor VIIIa A2 subunit, Glu665Val (other) SVAKKHPKTWVHYIAAEEEDWDYAPLVLAPDDRSYKSQYLNNGPQRIGRKYKKVRFMAYTDETFKTREAIQHESGILGPLLYGEVGDTLLIIFKNQASRPYNIYPHGITDVRPLYSRRLPKGVKHLKDFPILPGEIFKYKWTVTVEDGPTKSDPRCLTRYYSSFVNMERDLASGLIGPLLICYKESVDQRGNQIMSDKRNVILFSVFDENRSWYLTENIQRFLPNPAGVQLEDPEFQASNIMHSINGYVFDSLQLSVCLHEVAYWYILSIGAQTDFLSVFFSGYTFKHKMVYVDTLTLFPFSGETVFMSMENPGLWILGCHNSDFRNRGMTALLKVSSCDKNTGDYYEDSYEDISAYLLSKNNAIEPR"
  RESULT: "0.24 relative to wild type"
- BINDER: "factor VIIIa A2 subunit, Asp519Val (other) SVAKKHPKTWVHYIAAEEEDWDYAPLVLAPDDRSYKSQYLNNGPQRIGRKYKKVRFMAYTDETFKTREAIQHESGILGPLLYGEVGDTLLIIFKNQASRPYNIYPHGITDVRPLYSRRLPKGVKHLKDFPILPGEIFKYKWTVTVEVGPTKSDPRCLTRYYSSFVNMERDLASGLIGPLLICYKESVDQRGNQIMSDKRNVILFSVFDENRSWYLTENIQRFLPNPAGVQLEDPEFQASNIMHSINGYVFDSLQLSVCLHEVAYWYILSIGAQTDFLSVFFSGYTFKHKMVYEDTLTLFPFSGETVFMSMENPGLWILGCHNSDFRNRGMTALLKVSSCDKNTGDYYEDSYEDISAYLLSKNNAIEPR"
  RESULT: "0.35 relative to wild type"
- BINDER: "factor VIIIa A2 subunit, Glu665Ala (other) SVAKKHPKTWVHYIAAEEEDWDYAPLVLAPDDRSYKSQYLNNGPQRIGRKYKKVRFMAYTDETFKTREAIQHESGILGPLLYGEVGDTLLIIFKNQASRPYNIYPHGITDVRPLYSRRLPKGVKHLKDFPILPGEIFKYKWTVTVEDGPTKSDPRCLTRYYSSFVNMERDLASGLIGPLLICYKESVDQRGNQIMSDKRNVILFSVFDENRSWYLTENIQRFLPNPAGVQLEDPEFQASNIMHSINGYVFDSLQLSVCLHEVAYWYILSIGAQTDFLSVFFSGYTFKHKMVYADTLTLFPFSGETVFMSMENPGLWILGCHNSDFRNRGMTALLKVSSCDKNTGDYYEDSYEDISAYLLSKNNAIEPR"
  RESULT: "0.54 relative to wild type"

// moving on: another record for Decay rate relative to wild type, Factor VIIIa (1.5 nM, factor IXa absent)
Fill in reported Decay rate relative to wild type, Factor VIIIa (1.5 nM, factor IXa absent) for this entry: factor VIIIa A2 subunit, Asp519Ala (other) SVAKKHPKTWVHYIAAEEEDWDYAPLVLAPDDRSYKSQYLNNGPQRIGRKYKKVRFMAYTDETFKTREAIQHESGILGPLLYGEVGDTLLIIFKNQASRPYNIYPHGITDVRPLYSRRLPKGVKHLKDFPILPGEIFKYKWTVTVEAGPTKSDPRCLTRYYSSFVNMERDLASGLIGPLLICYKESVDQRGNQIMSDKRNVILFSVFDENRSWYLTENIQRFLPNPAGVQLEDPEFQASNIMHSINGYVFDSLQLSVCLHEVAYWYILSIGAQTDFLSVFFSGYTFKHKMVYEDTLTLFPFSGETVFMSMENPGLWILGCHNSDFRNRGMTALLKVSSCDKNTGDYYEDSYEDISAYLLSKNNAIEPR
0.53 relative to wild type
